Source of measurements: patent US20250009726A1

measurementDescription: Equilibrium solubility in media with different pH values (shaking 72 h, 37° C.)
Format: physicochemical
conditionNotes: aqueous buffer, thermodynamic from solid; pH 6.0, 37° C., 72 h
reportedMetric: solubility thermodynamic at 72 h
Reply with the number, then its unit.

Query :: Suppose we examine the compound O=C([O-])c1ccc(Oc2ccc3cc(OCc4c(-c5c(Cl)cccc5Cl)noc4C4CC4)ccc3c2)nc1.[Na+] ; what solubility thermodynamic at 72 h value has been reported?
Result :: 1.5 µg/mL

====

measurementDescription: Log D of the compound of formula (I)
Assay type: physicochemical
reportedMetric: logD

Query :: Suppose we examine the compound O=C([O-])c1ccc(Oc2ccc3cc(OCc4c(-c5c(Cl)cccc5Cl)noc4C4CC4)ccc3c2)nc1.[Na+] ; what logD value has been reported?
Result :: 5.76

====

measurementDescription: Equilibrium solubility in media with different pH values (shaking 72 h, 37° C.)
Format: physicochemical
conditionNotes: aqueous buffer, thermodynamic from solid; pH 6.8, 37° C., 72 h
reportedMetric: solubility thermodynamic at 72 h (µg/mL)
Note: unit µg/mL is implicit; provide only the numeric part.

Query :: Suppose we examine the molecule O=C([O-])c1ccc(Oc2ccc3cc(OCc4c(-c5c(Cl)cccc5Cl)noc4C4CC4)ccc3c2)nc1.[Na+] [COMPOUND I] ; what solubility thermodynamic at 72 h value has been reported?
Result :: 217

====

measurementDescription: pKa of the compound of formula (I)
Format: physicochemical
reportedMetric: pKa
Returns: the value as a bare number; no unit string appended.

Query :: Suppose we examine the compound O=C([O-])c1ccc(Oc2ccc3cc(OCc4c(-c5c(Cl)cccc5Cl)noc4C4CC4)ccc3c2)nc1.[Na+] ; what pKa value has been reported?
Result :: 3.76
